system: SK-MEL-2; experiment: NCI tumour cell line growth inhibition, 48 h
Active and inactive are the calls of the source. Rule as the data show it: active = GI50 up to about 1.1 µM and inactive = higher.
Classes to choose from: active, inactive

>  <compound>
Cn1c(=O)cc(N2CCCC2)[nH]c1=O

>  <label>
inactive

$$$$

Problem: State the result this test recorded for C/C=C/[C@@]1(OC(=O)c2ccccc2)C[C@@H]2CCCC[C@@H]21 .
Result: inactive

Problem: For C=CCNC1=C2C[C@@H](C)C[C@@H](OC)[C@H](OC(=O)CCN)[C@H](C)/C=C(\C)[C@@H](OC(N)=O)[C@H](OC)/C=C\C=C(/C)C(=O)NC(=CC1=O)C2=O then?
Result: inactive

Problem: Also need N#C[C@H](c1ccccn1)c1nc2ccccc2nc1Cl , thanks.
Result: inactive

====

system: MDA-MB-435; assay: NCI tumour cell line growth inhibition, 48 h
Active and inactive are the calls of the source. Cut-off read from the data, not from the text of the source: active = GI50 up to about 1.1 µM and inactive = higher.
parameter.measured: GI50

Recorded GI50, per entry:
>  <compound>
Cc1ccc(S(=O)(=O)NCCCSCCN)cc1

>  <endpoint.result>
> 100 µM (inactive)

$$$$
>  <compound>
Cc1cc(S(=O)(=O)NC2=NCc3nc4ccccc4n32)c(S)cc1Cl

>  <endpoint.result>
28.8 µM (inactive)

$$$$
>  <compound>
COC(=O)c1ccc(NCc2cc(OC)ccc2OC)cc1

>  <endpoint.result>
21.8 µM (inactive)

$$$$
>  <compound>
O=C1CC2c3ccccc3CCC2c2ccccc21 (stereo not given)

>  <endpoint.result>
19.3 µM (inactive)

$$$$
>  <compound>
COc1ccc2c(c1)c1c(n2CCN2CCOCC2)-c2cccc(OC)c2CC1

>  <endpoint.result>
44 µM (inactive)

$$$$

Please turn your attention to the following entry.
Problem: Field request: GI50 | item: NC(=O)NNCc1c(-c2ccccc2)no[n+]1[O-]
Result: > 100 µM (inactive)

====

tested on: HOP-92; test: NCI tumour cell line growth inhibition, 48 h
Calls of active or inactive are those of the source. Cut-off read from the data, not from the text of the source: active = GI50 up to about 1.1 µM and inactive = higher.
Field 'call' accepts active, inactive

Consider the following illustrative entries.
>  <compound>
CCCCCCCCCCCCCCCCOP(=O)([O-])OCC[N+](C)(C)C

>  <tested.system>
HOP-92

>  <label>
inactive

$$$$
>  <compound>
FC(F)(F)c1nc(Br)[nH]c1C(F)(F)F

>  <tested.system>
HOP-92

>  <label>
inactive

$$$$
>  <compound>
C=C1C(=O)OC2/C=C(\C)C(O)/C=C\C(C)(O)CC(OC(=O)/C(C)=C/C)C12 (stereo not drawn)

>  <tested.system>
HOP-92

>  <label>
inactive

$$$$
>  <compound>
OC[C@@H](O)[C@H](O)[C@@H](O)/C=N/Nc1ccc(Cl)nn1

>  <tested.system>
HOP-92

>  <label>
inactive

$$$$
>  <compound>
COC(=O)/C(=N\NC(=S)NN)C(C(=O)C(=O)Nc1ccccc1C(N)=O)c1nc2ccccc2nc1O (stereo not drawn)

>  <tested.system>
HOP-92

>  <label>
inactive

$$$$
>  <compound>
COC(=O)C(NC(=O)OC(C)(C)C)P(=O)(OC)OC (stereo not drawn)

>  <tested.system>
HOP-92

>  <label>
inactive

$$$$
>  <compound>
Oc1cccc2c1[nH]c1c(C3=C[C@@]4(O)CC/C=C\CCCCN5CC[C@@H]3[C@]3(CC6/C=C\CCCCN6[C@H]34)C5)nccc12 (stereo partly drawn)

>  <tested.system>
HOP-92

>  <label>
active

$$$$

Field: next compound
Problem: Recorded test outcome, item O=C1C(NCCc2cc(Br)c(O)c(Br)c2)=CC(=O)c2ncccc21
Result: inactive
